Attribution: ChEMBL document CHEMBL1124933

- SYSTEM_UNDER_TEST: GABA-A receptor; anion channel
- ASSAY_OVERVIEW: Inhibition of specific binding of 1.5 nM [3H]diazepam to rat brain benzodiazepine receptors
This listing pairs molecules with measured log10 of IC50.
MEASURED_METRIC: log10 of IC50 (log10 of the value in µM)

| SMILES_DATA | log10 of IC50 |
| --- | --- |
| CNc1nc2c(N(C)C)ncnc2n1Cc1cccc(N)c1 | 0.86 |
| CN(C)c1ncnc2c1nc(O)n2Cc1cccc(N)c1 | 0.26 |
| CN(C)c1ncnc2c1nc(O)n2Cc1cccc(NC=O)c1 | -0.89 |
| CNc1nc2c(N(C)C)ncnc2n1Cc1ccccc1 | 1.23 |
| CN(C)c1ncnc2c1nc(N(C)C)n2Cc1ccccc1 | 0.76 |
| CN(C)c1ncnc2c1nc(Br)n2Cc1cccc(NC=O)c1 | -1.96 |
| COc1nc2c(N(C)C)ncnc2n1Cc1cccc(N)c1 | 0.00 |
| CN(C)c1ncnc2c1nc(Br)n2Cc1cccc(N)c1 | -0.96 |
| CC(=O)Nc1cccc(Cn2c(Br)nc3c(N(C)C)ncnc32)c1 | -0.08 |
| COC(=O)Nc1cccc(Cn2c(Br)nc3c(N(C)C)ncnc32)c1 | 0.72 |
| Cc1nc2c(N(C)C)ncnc2n1Cc1ccccc1 | 0.93 |
| CN(C)c1ncnc2c1nc(Br)n2Cc1cccc(NC(N)=O)c1 | -1.60 |
| CN(C)c1ncnc2c1nc(N(C)C)n2Cc1cccc(NC=O)c1 | -0.96 |
| CNc1nc2c(N(C)C)ncnc2n1Cc1cccc(NC=O)c1 | -0.44 |
| CN(C)c1ncnc2c1nc(Br)n2Cc1cccc(NC(=O)c2ccccc2)c1 | 0.90 |
| CN(C)c1ncnc2c1ncn2Cc1cccc(NC=O)c1 | -1.47 |
| COc1nc2c(N(C)C)ncnc2n1Cc1ccccc1 | 0.73 |
| CN(C)c1ncnc2c1nc(N(C)C)n2Cc1cccc(N)c1 | -0.22 |
| CN(C)c1ncnc2c1nc(Br)n2Cc1cccc(NS(C)(=O)=O)c1 | 0.18 |
| CN(C)c1ncnc2c1nc(Cl)n2Cc1cccc(N)c1 | -0.72 |
| CN(C)c1ncnc2c1nc(Br)n2Cc1ccccc1 | 0.48 |
